system: PHOX2B; experiment: 3' UTR reporter interaction score (median-centred robust z-score of log2 firefly/Renilla activity); higher = less repression of the 3' UTR reporter; conditions: HEK293T; 48 h
Catalogue of 3' UTR reporter interaction score readings, one per entry.

Here is how some sequences turned out for 3' UTR reporter interaction score.
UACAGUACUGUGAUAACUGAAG
0.00398
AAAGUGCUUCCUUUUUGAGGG
1.32
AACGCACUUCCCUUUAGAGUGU
-0.209
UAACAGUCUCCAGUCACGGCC
-0.145
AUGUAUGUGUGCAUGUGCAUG
-0.089
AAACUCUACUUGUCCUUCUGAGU
0.571

Exercise: Which 3' UTR reporter interaction score value belongs to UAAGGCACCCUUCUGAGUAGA ?
Key: 1.39

Exercise: Give its 3' UTR reporter interaction score value. Item: UCUAGUAAGAGUGGCAGUCG
Key: 1.81

Exercise: Item under review: GGGCGCCUGUGAUCCCAAC . Reported 3' UTR reporter interaction score?
Key: 0.588

###

test system: ZEB2; experiment: 3' UTR reporter interaction score (median-centred robust z-score of log2 firefly/Renilla activity); higher = less repression of the 3' UTR reporter; conditions: HEK293T; 48 h
measurement kind: 3' UTR reporter interaction score
// print number alone

Some solved cases for reference:
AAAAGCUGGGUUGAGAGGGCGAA
1.15
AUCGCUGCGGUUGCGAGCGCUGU
0.885

Now for a further sequence.
Exercise: Query: 3' UTR reporter interaction score; subject: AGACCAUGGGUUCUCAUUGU
Key: -1.1

###

test system: MYT1L; experiment: 3' UTR reporter interaction score (median-centred robust z-score of log2 firefly/Renilla activity); higher = less repression of the 3' UTR reporter; settings: HEK293T; 48 h
Class definitions on 3' UTR reporter interaction score: lower band (below -0.2), central band (-0.2 to below 0.8), upper band (0.8 or more)

These solved cases illustrate the format of a correct answer.
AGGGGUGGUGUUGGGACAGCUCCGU
lower band
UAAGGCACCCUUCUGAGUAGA
upper band
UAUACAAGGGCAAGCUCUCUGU
central band
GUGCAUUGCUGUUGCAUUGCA
central band
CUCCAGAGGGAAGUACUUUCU
upper band

Exercise: Form field 'band' for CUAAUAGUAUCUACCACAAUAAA
Key: lower band

Exercise: Each sequence maps to one class by 3' UTR reporter interaction score. Which class for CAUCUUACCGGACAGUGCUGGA ?
Key: central band

Exercise: Into which bin does this sequence go? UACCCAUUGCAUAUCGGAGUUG
Key: lower band

Exercise: // bin(item) where item = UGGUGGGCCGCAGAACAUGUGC
Key: upper band

Exercise: Determine which band this sequence sits in: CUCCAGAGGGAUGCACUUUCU
Key: central band

Exercise: Form: Item = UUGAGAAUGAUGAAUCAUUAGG ; Class = ?
Key: central band

###

test system: TP53; assay: 3' UTR reporter interaction score (median-centred robust z-score of log2 firefly/Renilla activity); higher = less repression of the 3' UTR reporter; conditions: HEK293T; 48 h
Decision: 3' UTR reporter interaction score >= 0.3 yields criterion met, all other cases yield criterion not met.

See these solved cases before continuing.
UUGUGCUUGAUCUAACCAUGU
criterion not met
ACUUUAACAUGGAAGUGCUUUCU
criterion not met
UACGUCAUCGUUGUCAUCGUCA
criterion not met
AGUGUGGCUUUCUUAGAGC
criterion not met

Exercise: Can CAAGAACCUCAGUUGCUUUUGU be said to have 3' UTR reporter interaction score at or above 0.3?
Key: criterion met

Exercise: Decide: is the reported value of 3' UTR reporter interaction score for UGCUUCCUUUCAGAGGGU equal to or greater than 0.3?
Key: criterion not met

Exercise: Threshold query (3' UTR reporter interaction score >= 0.3) on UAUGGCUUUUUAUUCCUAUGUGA
Key: criterion not met

Exercise: # check: 3' UTR reporter interaction score of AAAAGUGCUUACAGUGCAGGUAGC is greater than or equal to 0.3
Key: criterion not met

###

system: RB1; assay: 3' UTR reporter interaction score (median-centred robust z-score of log2 firefly/Renilla activity); higher = less repression of the 3' UTR reporter; conditions: HEK293T; 48 h
true (1) means recorded 3' UTR reporter interaction score is -0.05 or above; false (0) means it is below -0.05.

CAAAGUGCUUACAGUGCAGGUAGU
true (1)
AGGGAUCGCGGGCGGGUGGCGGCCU
true (1)
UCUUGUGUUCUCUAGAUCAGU
true (1)

Exercise: Does the reported 3' UTR reporter interaction score for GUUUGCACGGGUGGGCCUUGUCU fall at or above the -0.05 mark?
Key: false (0)

Exercise: Test whether the sequence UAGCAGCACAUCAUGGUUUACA records 3' UTR reporter interaction score of -0.05 or higher.
Key: true (1)

Exercise: Hi, just wondering whether AACAUUCAUUGCUGUCGGUGGG shows 3' UTR reporter interaction score of -0.05 or higher.
Key: true (1)

Exercise: Quick check: does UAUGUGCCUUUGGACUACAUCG have 3' UTR reporter interaction score greater than or equal to -0.05?
Key: true (1)

Exercise: Exam item: decide whether the reported 3' UTR reporter interaction score for GGUCCAGAGGGGAGAUAGG is at least -0.05.
Key: false (0)

Exercise: Answer whether 3' UTR reporter interaction score of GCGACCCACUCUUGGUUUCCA is greater than or equal to -0.05.
Key: false (0)

###

tested on: MYT1L; assay: 3' UTR reporter interaction score (median-centred robust z-score of log2 firefly/Renilla activity); higher = less repression of the 3' UTR reporter; settings: HEK293T; 48 h
# binarize 3' UTR reporter interaction score: threshold -0.4 inclusive, high side rule met, low side rule not met

Here are 3 sequences together with their reported answers.
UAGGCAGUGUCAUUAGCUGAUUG
rule met
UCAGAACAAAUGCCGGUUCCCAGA
rule met
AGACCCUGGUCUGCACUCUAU
rule not met

Exercise: Form field: 3' UTR reporter interaction score at least -0.4? Entry: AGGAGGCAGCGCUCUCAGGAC
Key: rule met

Exercise: Exam item: decide whether the reported 3' UTR reporter interaction score for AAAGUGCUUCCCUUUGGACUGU is at least -0.4.
Key: rule not met

Exercise: Given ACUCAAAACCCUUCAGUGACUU , state whether its 3' UTR reporter interaction score is at least -0.4.
Key: rule met

###

A collection of sequences and their measured 3' UTR reporter interaction score
test system: MYB; assay: 3' UTR reporter interaction score (median-centred robust z-score of log2 firefly/Renilla activity); higher = less repression of the 3' UTR reporter; conditions: HEK293T; 48 h
Reply with just the number.

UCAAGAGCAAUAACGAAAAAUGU
-0.127
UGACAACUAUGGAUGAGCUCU
0.977
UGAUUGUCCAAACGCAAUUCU
0.183

Exercise: What 3' UTR reporter interaction score value was documented for this sequence, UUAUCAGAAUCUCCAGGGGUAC ?
Key: 1.26

Exercise: Entry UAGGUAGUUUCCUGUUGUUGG : reported 3' UTR reporter interaction score = ?
Key: 0.0231

Exercise: Consider the sequence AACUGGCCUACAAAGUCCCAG and give its measured 3' UTR reporter interaction score.
Key: -3.25

Exercise: I would be grateful if you could share the reported 3' UTR reporter interaction score for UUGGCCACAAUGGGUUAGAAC .
Key: 0.316

Exercise: Tell me the measured 3' UTR reporter interaction score of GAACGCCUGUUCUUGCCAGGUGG , please.
Key: 0.0781

Exercise: Recorded 3' UTR reporter interaction score for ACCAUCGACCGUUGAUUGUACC , please?
Key: 0.0907

Exercise: I have this sequence here, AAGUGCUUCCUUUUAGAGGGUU , and I need its recorded 3' UTR reporter interaction score.
Key: -0.72

Exercise: 3' UTR reporter interaction score lookup needed for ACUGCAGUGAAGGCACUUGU , thanks.
Key: 0.157

Exercise: // returns reported 3' UTR reporter interaction score for input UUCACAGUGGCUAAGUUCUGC
Key: 1.56

Exercise: Entry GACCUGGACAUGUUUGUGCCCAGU : reported 3' UTR reporter interaction score = ?
Key: -0.217

Exercise: Suppose we examine the sequence GGGCGCCUGUGAUCCCAAC ; what 3' UTR reporter interaction score value has been reported?
Key: 0.137

Exercise: Param item = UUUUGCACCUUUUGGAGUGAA ; retrieve measured 3' UTR reporter interaction score.
Key: 1

###

system: TP53; experiment: 3' UTR reporter interaction score (median-centred robust z-score of log2 firefly/Renilla activity); higher = less repression of the 3' UTR reporter; settings: HEK293T; 48 h
# label = label 1 if 3' UTR reporter interaction score >= 0.4 else label 0

Would you please look over these solved cases?
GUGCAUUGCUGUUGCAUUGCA
label 1
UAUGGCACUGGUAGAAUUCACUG
label 0
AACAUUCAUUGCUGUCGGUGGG
label 1
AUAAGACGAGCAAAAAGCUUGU
label 1
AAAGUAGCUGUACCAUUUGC
label 0
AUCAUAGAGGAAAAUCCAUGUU
label 1
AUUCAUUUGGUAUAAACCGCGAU
label 0
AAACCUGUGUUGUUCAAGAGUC
label 0
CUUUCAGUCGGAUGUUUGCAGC
label 0

Let us examine a further case.
Exercise: Textbook exercise: given the entry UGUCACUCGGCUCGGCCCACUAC , state whether its 3' UTR reporter interaction score is greater than or equal to 0.4.
Key: label 1
